Tested on: UACC-257
assay.procedure: NCI tumour cell line growth inhibition, 48 h
The source made the active and inactive calls. No stated cut-off is given here; in the data, active = GI50 up to about 1.1 µM and inactive = higher.
measurement.type: GI50

Example cases with answers are listed next.
CCCCn1c(N)c(-c2nc3ccccc3o2)sc1=S	60.7 µM (inactive)
Cc1nc(-n2nc(-c3ccccc3)cc2-c2ccccc2)sc1C(=O)/C=C/c1ccc(/C=C/C(=O)c2sc(-n3nc(-c4ccccc4)cc3-c3ccccc3)nc2C)cc1	21 µM (inactive)
O=C(NO)C(=O)Nc1cc(Cl)ccc1Cl	> 100 µM (inactive)
Cc1nc2c(c(N3CCN(C)CC3)n1)Cc1ccccc1-2	57 µM (inactive)

Shift focus to the following entry.
Supply GI50 value. Item: COC(=O)C1CCC(=S)N1C(=O)c1ccccc1 (stereo not given)
> 100 µM (inactive)

* * *

Test system: SNB-19
assay.procedure: NCI tumour cell line growth inhibition, 48 h
Activity calls are given as the source filed them. Cut-off read from the data, not from the text of the source: active = GI50 up to about 1.1 µM and inactive = higher.
measurement.type: GI50

Some solved entries appear below for comparison.
Cc1ccc(S(=O)(=O)N2CCCN(S(=O)(=O)c3ccc(C)cc3)CCN(S(=O)(=O)c3ccc(C)cc3)CCCSCC2)cc1	> 100 µM (inactive)
COc1cc(/C=C2\CCC(C)c3c2nc(N)c(C#N)c3-c2cc(OC)c(OC)c(OC)c2)cc(OC)c1OC (stereo not drawn)	54 µM (inactive)

Field: next compound
Name the recorded GI50 of the item CC(=O)OCC1OC(n2cc(F)c(=O)[nH]c2=O)C(NC(=O)OCc2ccccc2)C(OC(C)=O)C1OC(C)=O (stereo not drawn) in your answer.
> 100 µM (inactive)

* * *

Tested on: A549
assay.procedure: NCI tumour cell line growth inhibition, 48 h
Activity calls are given as the source filed them. Cut-off read from the data, not from the text of the source: active = GI50 up to about 1.1 µM and inactive = higher.
measurement.type: GI50

C/C(=N\N=C1/C(=O)OC(c2ccccc2)=C1C(=O)c1ccccc1)c1ccc([N+](=O)[O-])cc1	41.7 µM (inactive)
[N-]=[N+]=CC(=O)c1ccccc1C#CCCc1ccccc1	27.2 µM (inactive)
O=C(O)c1nc2ccc(C(F)(F)F)cc2[nH]c1=O	> 100 µM (inactive)
Cn1c(=O)c2c(nc3n(Cc4ccccc4)c(=O)c(Br)cn23)n(C)c1=O	> 100 µM (inactive)
CC(C1=CC=C2[C@@H]3CCC4CC(N(C)C)CC[C@]4(C)C3CC[C@]12C)N(C)C=O (stereo partly specified)	> 100 µM (inactive)

Report GI50 for `Cn1c2ccccc2c2c(-c3ccccc3)cc3c(c21)C(=O)C=CC3=O`
> 10 µM (inactive)

Supply measured GI50 of `COc1ccc(NC(=O)/C(=N/O)C(C)=O)cc1` in your reply.
> 100 µM (inactive)

* * *

Test system: T47D
assay.procedure: NCI tumour cell line growth inhibition, 48 h
The source made the active and inactive calls. No stated cut-off is given here; in the data, active = GI50 up to about 1.1 µM and inactive = higher.
measurement.type: GI50

Some solved entries appear below for comparison.
CC(=O)n1nc(-c2ccccc2)n(/N=C/c2ccc([N+](=O)[O-])o2)c1=O	19.9 µM (inactive)
COC(O)C(=O)c1ccc2c(c1)CC1(C2)Cc2cc3c(cc2C1=O)CCC3 (centres undefined)	19.2 µM (inactive)
CCc1cc2c(cc1O)CC[C@@H]1[C@@H]2CC[C@]2(C)[C@@H](O)CC[C@@H]12	7.48 µM (inactive)

Okay, next one:
Give GI50 only, for `CCCCc1ccc(N2C(=O)c3cc(C)cnc3S2(=O)=O)cc1` , using T47D data.
> 100 µM (inactive)

* * *

Tested on: NCI-H460
assay.procedure: NCI tumour cell line growth inhibition, 48 h
Activity calls are given as the source filed them. Rule as the data show it: active = GI50 up to about 1.1 µM and inactive = higher.
measurement.type: GI50

Cc1cc(NC(=O)NC(=O)c2ccccc2NC(=O)CN(C)C)ccc1Oc1ncc(Br)cn1	0.78 µM (active)
Cn1cc(C(=O)c2ccccc2)cc(C(=O)c2ccccc2)c1=O	> 100 µM (inactive)
COc1cc(Nc2nc3ccc(C(F)(F)F)cc3nc2C(=O)O)cc(OC)c1OC	21.2 µM (inactive)
CN(C)c1ccc(/N=C2/NC(=N\c3ccccc3)/C(=N/c3ccccc3)S2)cc1	> 100 µM (inactive)
CC1=CCC[C@@H]2[C@@](C)(Cc3cc(O)ccc3O)[C@H](C)CC[C@@]12C	5.83 µM (inactive)
CCc1cc2c(cc1O)CC[C@@H]1[C@@H]2CC[C@]2(C)[C@@H](O)CC[C@@H]12	5.42 µM (inactive)

Now for a further compound.
Using the record for `CCOP(=O)(C/C(=N/NC(C)(C)C)C(=O)Nc1nc2ccc(C)cc2s1)OCC` , state its measured GI50.
> 100 µM (inactive)

* * *

Test system: NCI-H522
assay.procedure: NCI tumour cell line growth inhibition, 48 h
Activity calls are given as the source filed them. Cut-off read from the data, not from the text of the source: active = GI50 up to about 1.1 µM and inactive = higher.
Recorded GI50 by entry

Would you please look over these solved cases?
c1ccc2c(CN3CCC(C4CCN(Cc5cccc6ccccc56)CC4)CC3)cccc2c1	8.53 µM (inactive)
c1ccc2c(c1)CC1=C(O2)c2ccccc2OC1	19.5 µM (inactive)

Now for a further compound.
Output measured GI50 for this item: `O=C(NNC(=O)c1c(Cl)c(Cl)c(Cl)c(Cl)c1-c1nc2ccccc2[nH]1)c1ccc(Cl)cc1`
49.8 µM (inactive)

* * *

Test system: LXFL 529
assay.procedure: NCI tumour cell line growth inhibition, 48 h
Calls of active or inactive are those of the source. Cut-off read from the data, not from the text of the source: active = GI50 up to about 1.1 µM and inactive = higher.
Consider the following compounds and their measured GI50 readings.

Give a short answer stating reported GI50 for CCCCCC1CC(C(C)=O)CN1c1ccc(F)cc1 (stereo not given) .
32.1 µM (inactive)

Note GI50 for the compound shown: CCOC(=O)C1=C(OC(OCC)C([Se]c2ccccc2)C(C)C)CCC1 (stereo not given)
12.2 µM (inactive)

Give the measured GI50 for CCC1CN2CCc3cc(OC)c(OC)cc3C2CC1CC1c2cc(OC)c(OC)cc2CCN1C(=O)CNC(=O)OC(C)(C)C (stereo not given)
10.9 µM (inactive)

Determine from records and report GI50 for `CCOC(=O)CCCO`
> 100 µM (inactive)

Indicate its recorded GI50; the compound in question is `O=c1c(Cl)c(Cl)cnn1CCCl`
1.62 µM (inactive)

* * *

Tested on: ACHN
assay.procedure: NCI tumour cell line growth inhibition, 48 h
Calls of active or inactive are those of the source. Rule as the data show it: active = GI50 up to about 1.1 µM and inactive = higher.
Please answer using one outcome listed in 1.0 (active), 0.0 (inactive)

The following compounds have reported results that may help.
c1ccc2c(c1)CC1=C(O2)c2ccccc2OC1	0.0
COc1ccc(Oc2cccc(/C=C3/C(=O)Nc4ccccc43)c2)cc1	0.0
CC1=CCP(C(F)(F)F)P(C(F)(F)F)C1 (stereo not drawn)	0.0

Kindly review the next compound as well.
# lookup: test call for `Cc1nc(Nc2ccc(Cl)cc2)sc1C(=O)Nc1cccc2c(=O)[nH][nH]c(=O)c12`
0.0

* * *

Test system: SF-539
assay.procedure: NCI tumour cell line growth inhibition, 48 h
Activity calls are given as the source filed them. Cut-off read from the data, not from the text of the source: active = GI50 up to about 1.1 µM and inactive = higher.
GI50 listing for selected compounds.

Reference set (3 entries):
Nc1ncn([C@@H]2C=C(CO)C(O)C2O)c(=O)n1 (some centres undefined)	> 100 µM (inactive)
Cc1cc(S(=O)(=O)N/C(=N/N)NCCc2ccccc2)c(S)cc1Cl	24 µM (inactive)
O=C(O)c1nc2ccc(C(F)(F)F)cc2[nH]c1=O	> 100 µM (inactive)

Please give measured GI50 of the following entry: `COc1ccc2c(c1)CCc1cc(OC)ccc1/[N+]([O-])=[N+]\2[O-]`
21.2 µM (inactive)

* * *

Test system: TK-10
assay.procedure: NCI tumour cell line growth inhibition, 48 h
Calls of active or inactive are those of the source. No stated cut-off is given here; in the data, active = GI50 up to about 1.1 µM and inactive = higher.
Let's look at some compounds and their measured GI50.

C#CCn1c(=O)c(C)cn(/C(=C\C(=O)OCC)C(=O)OCC)c1=O	1.77 µM (inactive)

Look up TK-10 data: GI50 of COC(O)C(=O)c1ccc2c(c1)CC1(C2)Cc2cc3c(cc2C1=O)CCC3 (stereo not drawn) , then report it.
21.6 µM (inactive)

Find the measured GI50 of `N#Cc1c(O)c(/N=N/c2ccccc2F)c(=O)n2c1[nH]c1ccccc12` with TK-10 as test system.
55.6 µM (inactive)

Please report the measured GI50 for `COc1cc(Nc2nc3ccc(C(F)(F)F)cc3nc2C(=O)O)cc(OC)c1OC` tested on TK-10.
22.8 µM (inactive)

Look up TK-10 data: GI50 of `O=C(NO)C(=O)Nc1cc(Cl)ccc1Cl` , then report it.
> 100 µM (inactive)

State the measured GI50 (TK-10) of `CC(=O)/C(=N\O)C(=O)NCCc1ccccc1`
45.1 µM (inactive)

Give reported GI50 for `CSCSSC` (TK-10)
> 100 µM (inactive)

Provide GI50, recorded with TK-10, of `Nc1nc2cc(CNc3ccc(C(=O)O)cc3)ccc2nc1-c1ccccc1`
> 100 µM (inactive)

* * *

Test system: EKVX
assay.procedure: NCI tumour cell line growth inhibition, 48 h
The source made the active and inactive calls. Cut-off read from the data, not from the text of the source: active = GI50 up to about 1.1 µM and inactive = higher.
Response enum: active, inactive

These recorded examples may help you get a feel for the data.
O=NN(CCCl)C(=O)NC1CCSc2ccccc21 (stereo not given)	inactive
COc1ccc2nc(NC(=O)C(=O)C(C#N)c3ccc(Cl)c(Cl)c3)sc2c1 (stereo not given)	inactive

Kindly provide the recorded test outcome for the following molecule: `CC(=O)n1nc(-c2ccccc2)n(/N=C/c2ccc([N+](=O)[O-])o2)c1=O`
active

What did this assay record as the result for [N-]=[N+]=CC(=O)OCC(N)C(=O)O (stereo not given) ?
active

What classification did `Cc1cc(C)n(-c2nc(-n3nc(C)cc3C)nc(-n3nc(C)cc3C)n2)n1` end up with in this test?
inactive

Which outcome did this test record for the molecule `Cc1nn(-c2ccccc2)c(C)c1/C=N/N=C1\SCC(=O)N1c1ccccc1` ?
inactive

Test call for this molecule, please: `COC1=CC(=O)c2c(c(-c3csc(C)n3)cn2C)C1=O`
inactive

For this molecule, state the assay outcome: C=C=C(CC1CCCCC1=O)S(=O)(=O)c1ccccc1 (stereo not given)
inactive

Call for entry `Cc1sc(N)c(S(=O)(=O)c2ccccc2)c1C` :
inactive

Please indicate how the test categorized `CC(=O)/C(=N\O)C(=O)NCCc1ccccc1` .
inactive

What classification did COc1ccc(COC2CC(OC)OC(C)C2OC(=O)c2ccccc2)cc1 (stereo not given) end up with in this test?
inactive

GET /call?item= CCCCCCCCCCC(C)CCCCCCC(=O)O (stereo not given) returns the recorded outcome of this test.
inactive

Please share the test call associated with `Cc1c2ccnc(-c3ccccc3)c2cc2c1[nH]c1ccccc12` .
inactive

Per the records of this test, what outcome belongs to COc1ccc(CN2C(=O)C(Cc3cc(OC)c(OC)c(C)c3OC)N(C(=O)OC(C)C)C(=O)/C2=C/c2cc(OC)c(OC)c(C)c2OC)cc1 (stereo not given) ?
inactive

Could you please tell me the result logged for `CC1=CCC[C@@H]2[C@@](C)(Cc3cc(O)ccc3O)[C@H](C)CC[C@@]12C` in this assay?
inactive

Field: outcome | Entry: CC(C)=CCC/C(C)=C/CC/C(C)=C/C1CCC(=O)C1(C)C (stereo not given)
inactive

Give the logged outcome of this assay for the following molecule: `CCC(=O)NCCc1c[nH]c2ccc(OC)cc12`
inactive

Please let me know the test result on file for `O=C(/N=N/C(=O)OCc1ccccc1)OCc1ccccc1` .
inactive

Per the records of this test, what outcome belongs to O=C(c1ccc(O)cc1)C1c2c3c(cc(O)c2C(c2ccc(O)cc2)C1c1cc(O)cc(O)c1)OC(c1ccc(O)cc1)C3c1cc2c(cc1O)OC(c1ccc(O)cc1)C2c1cc(O)cc(O)c1 (stereo not given) ?
inactive
